Molecular target: Recombinant human FGFR1 (Homo sapiens)
Sequence (P11362 22-822): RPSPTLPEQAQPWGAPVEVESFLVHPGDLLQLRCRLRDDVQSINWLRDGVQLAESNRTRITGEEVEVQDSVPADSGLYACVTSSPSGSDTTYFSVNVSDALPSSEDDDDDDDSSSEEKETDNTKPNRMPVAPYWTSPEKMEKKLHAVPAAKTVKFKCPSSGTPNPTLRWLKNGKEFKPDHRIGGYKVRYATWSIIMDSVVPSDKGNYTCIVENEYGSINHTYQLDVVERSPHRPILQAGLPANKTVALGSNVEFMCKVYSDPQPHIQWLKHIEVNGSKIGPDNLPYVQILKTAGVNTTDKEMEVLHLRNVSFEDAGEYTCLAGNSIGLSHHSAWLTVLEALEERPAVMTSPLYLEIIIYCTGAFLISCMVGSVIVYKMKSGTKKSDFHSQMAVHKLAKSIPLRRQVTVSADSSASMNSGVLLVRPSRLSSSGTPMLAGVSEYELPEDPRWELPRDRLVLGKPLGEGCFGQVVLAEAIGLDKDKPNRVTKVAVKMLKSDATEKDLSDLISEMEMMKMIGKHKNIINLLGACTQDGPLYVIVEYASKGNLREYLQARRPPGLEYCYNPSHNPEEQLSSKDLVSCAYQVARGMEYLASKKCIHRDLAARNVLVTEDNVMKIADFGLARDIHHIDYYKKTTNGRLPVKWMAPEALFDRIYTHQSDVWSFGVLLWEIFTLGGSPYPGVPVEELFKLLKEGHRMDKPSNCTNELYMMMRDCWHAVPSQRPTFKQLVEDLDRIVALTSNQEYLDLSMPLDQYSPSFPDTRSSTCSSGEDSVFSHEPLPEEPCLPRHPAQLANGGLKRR
Experiment: Transcreener Kinase Assay of FGFR1
Type: biochemical
Conditions: FGFR1 (FP) IC50
Method: Transcreener Kinase Assay of FGFR1 Prepare Solution • Compounds were solved in DMSO and were diluted with assay buffer to 5 folds of final concentration keeping the DMSO concentration at 5%. […] • [ADP] in Compound well represents the ADP concentration in compound well. • [ADP] in Positive control well represents the ADP concentration in 5% DMSO well • Conversion of mP value to ADP concentration is calculated based on the formula which determined by standard curve. […]

{"STRUCTURE_AS_SMILES": "CNC(=O)c1cc(CCc2cnc(Nc3cnn(CC4CC4)c3)nc2)c(F)c(OC)c1", "IC50": "0.011 µM"}

* * *

Catalogue of molecules with associated IC50
molecular target: Recombinant human FGFR2 (Homo sapiens); assay: Transcreener Kinase Assay of FGFR2; format: biochemical; conditions: read-out: FGFR2 (FP) IC50
Sequence (P21802 22-821): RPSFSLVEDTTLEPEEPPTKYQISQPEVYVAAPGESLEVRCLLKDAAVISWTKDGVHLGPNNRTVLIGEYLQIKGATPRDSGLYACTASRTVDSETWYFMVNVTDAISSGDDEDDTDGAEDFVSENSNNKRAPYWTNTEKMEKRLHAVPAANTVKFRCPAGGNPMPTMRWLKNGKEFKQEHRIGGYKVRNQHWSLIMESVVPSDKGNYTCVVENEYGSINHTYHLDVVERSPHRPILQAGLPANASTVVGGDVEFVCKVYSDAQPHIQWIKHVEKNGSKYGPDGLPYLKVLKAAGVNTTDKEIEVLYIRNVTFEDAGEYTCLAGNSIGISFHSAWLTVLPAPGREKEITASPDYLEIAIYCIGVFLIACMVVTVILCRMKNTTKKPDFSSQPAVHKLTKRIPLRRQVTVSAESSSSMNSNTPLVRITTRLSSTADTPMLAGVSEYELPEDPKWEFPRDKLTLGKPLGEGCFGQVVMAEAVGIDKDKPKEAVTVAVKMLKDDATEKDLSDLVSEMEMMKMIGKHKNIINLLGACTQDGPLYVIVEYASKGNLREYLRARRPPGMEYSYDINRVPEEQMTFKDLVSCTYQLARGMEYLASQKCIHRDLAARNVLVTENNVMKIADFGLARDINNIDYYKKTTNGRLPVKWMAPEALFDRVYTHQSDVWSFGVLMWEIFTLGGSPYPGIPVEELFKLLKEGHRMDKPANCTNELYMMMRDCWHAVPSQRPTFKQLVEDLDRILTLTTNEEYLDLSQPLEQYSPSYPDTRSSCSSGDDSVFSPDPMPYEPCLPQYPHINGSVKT

{"MOLECULE": "CCN1CCN(c2ccc(Nc3ncc(CCc4cc(C(=O)NOC)cc(OC)c4Cl)cn3)cc2)CC1 [Compound 59]", "IC50 (nM)": 2}
{"MOLECULE": "CCN(CC)CCn1cc(Nc2ncc(CCc3cc(C(=O)NC)cc(OC)c3F)cn2)cn1 [Compound 136]", "IC50 (nM)": 11}
{"MOLECULE": "CNC(=O)c1cc(CCc2cnc(Nc3cccc(N4C[C@@H](C)N[C@@H](C)C4)c3)nc2)cc(OC)c1 [Compound 12]", "IC50 (nM)": 25}
{"MOLECULE": "CCn1cc(Nc2ncc(CCc3cc(C(=O)NC)cc(OC)c3Br)cn2)cn1 [Compound 83]", "IC50 (nM)": 9}
{"MOLECULE": "CNC(=O)c1cc(CCc2cnc(Nc3cnn(C4CCCC4)c3)nc2)c(F)c(OC)c1 [Compound 122]", "IC50 (nM)": 6}
{"MOLECULE": "CNC(=O)c1cc(CCc2cnc(Nc3ccnnc3)nc2)c(F)c(OC)c1 [Compound 61]", "IC50 (nM)": 17}
{"MOLECULE": "CCN1CC[C@@H](n2cc(Nc3ncc(CCc4cc(C(=O)NC)cc(OC)c4F)cn3)cn2)C1 [Compound 171]", "IC50 (nM)": 41}
{"MOLECULE": "CCNC(=O)c1cc(COc2cnc(Nc3ccc(N4C[C@@H](C)N[C@@H](C)C4)cc3)nc2)c(F)c(OC)c1 [Compound 205]", "IC50 (nM)": 25}
{"MOLECULE": "CNC(=O)c1cc(CCc2cnc(Nc3ccn4ccnc4c3)nc2)c(F)c(OC)c1 [Compound 66]", "IC50 (nM)": 7}
{"MOLECULE": "CNC(=O)c1cc(COc2cnc(Nc3ccc(N4C[C@@H](C)N[C@@H](C)C4)c(F)c3)nc2)c(F)c(OC)c1 [Compound 195]", "IC50 (nM)": 6}
{"MOLECULE": "CCN1CCN(c2cccc(Nc3ncc(CCc4cc(OC)cc(C(=O)NC)c4)cn3)c2)CC1 [Compound 9]", "IC50 (nM)": 28}
{"MOLECULE": "CNC(=O)c1cc(CCc2cnc(Nc3cnn(CCCN4CCCC4)c3)nc2)c(F)c(OC)c1 [Compound 138]", "IC50 (nM)": 7}
{"MOLECULE": "CNC(=O)c1cc(CCc2cnc(Nc3cnn(C4CCN(C)CC4)c3)nc2)c(F)c(OC)c1 [Compound 173]", "IC50 (nM)": 7}
{"MOLECULE": "CNC(=O)c1cc(COc2cnc(Nc3cnn(C)c3)nc2)c(Cl)c(OC)c1 [Compound 183]", "IC50 (nM)": 5}
{"MOLECULE": "CCN(CC)CCn1cc(Nc2ncc(CCc3cc(C(=O)NC)cc(OC)c3Cl)cn2)cn1 [Compound 86]", "IC50 (nM)": 10}
{"MOLECULE": "CNC(=O)c1cc(COc2cnc(Nc3cnn(C4C[C@@H](C)N[C@@H](C)C4)c3)nc2)c(F)c(OC)c1 (stereo partly shown) [Compound 202]", "IC50 (nM)": 6}
